Source: the supplement of paper PMC6555819

# System: LXRb:RXRa (NR concentration 270 nM, RXRa partner concentration 90 nM)
# testDetails: PBM binding z-score (relative to random genomic background probes); higher = stronger binding; sequences stand for … in GC…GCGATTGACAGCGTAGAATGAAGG
Task for the reader: assign each of the following sequences its reported PBM binding z-score.

Would you mind telling me what PBM binding z-score value was observed for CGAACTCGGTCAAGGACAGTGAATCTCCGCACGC ?
-0.232

Would you mind telling me what PBM binding z-score value was observed for TCAAATAGGTAAATGCTAGGTGAAAGTCCGATCT ?
0.834

Would you mind telling me what PBM binding z-score value was observed for ACTAGTTGGTCAGCTGAGGTCACATACAATTCGG ?
3.37

Would you mind telling me what PBM binding z-score value was observed for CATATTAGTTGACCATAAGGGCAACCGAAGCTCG ?
0.601

Would you mind telling me what PBM binding z-score value was observed for ATCGACAGGTCGAGGTGAGTATAGAGAAAGGGAA ?
0.0707

Would you mind telling me what PBM binding z-score value was observed for GCAACGAGGGCAAGTTGATAGCAGAGTTTGATGG ?
0.332

Would you mind telling me what PBM binding z-score value was observed for CCGACTGGGCCACGAAAGGTCATTGATTCAGTGA ?
4.13

Would you mind telling me what PBM binding z-score value was observed for TAGCCTAGGACATGGGCCAGTATACCACGCGAAC ?
-0.618

Would you mind telling me what PBM binding z-score value was observed for GCTAGTTGGTGAGTAAAAGGTCACACACCGGTCG ?
3.79

Would you mind telling me what PBM binding z-score value was observed for CCGACTGGGGCAGAAAGGATACCATACCATCCGG ?
-0.926

Would you mind telling me what PBM binding z-score value was observed for GCTGCTAGGTCAACTTATGGTCAGCTAAAGCTCG ?
2.52

Would you mind telling me what PBM binding z-score value was observed for TAGCCTCGGTCAGATCGGGCCAGTATACGCTATA ?
-0.821

---

Task for the reader: assign each of the following sequences its reported PBM binding z-score.
# Tested on: LXRb:RXRa (NR concentration 270 nM, RXRa partner concentration 90 nM)
# testDetails: PBM binding z-score (relative to random genomic background probes); higher = stronger binding; sequences stand for … in GC…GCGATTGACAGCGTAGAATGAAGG
Answer with a bare number; do not write a unit.

Would you mind telling me what PBM binding z-score value was observed for CCTACTGGGACAAGGTCATTGATCAGTCAAAGCA ?
3.06

Would you mind telling me what PBM binding z-score value was observed for AGTCAAAGTTCAGGACGAGGTAACGTAAAGCACG ?
1.93

Would you mind telling me what PBM binding z-score value was observed for GCTCGGATGACAAGGTCAGAGCTTTGTCCGTAGA ?
0.805

Would you mind telling me what PBM binding z-score value was observed for AGTGAAAGTTCATCTAGGTAACGTAAGATATGCT ?
3.56

Would you mind telling me what PBM binding z-score value was observed for GGAACAAGGGCAAGTTGATAGCAGAGTTTGATGG ?
0.264

Would you mind telling me what PBM binding z-score value was observed for TTACCAAGGTGTAGGTCGTTGATCCCTCTGTAGA ?
0.801

---

# System: THRa:RXRa (NR concentration 90 nM, RXRa partner concentration 90 nM)
# testDetails: PBM binding z-score (relative to random genomic background probes); higher = stronger binding; sequences stand for … in GC…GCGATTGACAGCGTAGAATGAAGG
measuredMetric: PBM binding z-score

Would you mind telling me what PBM binding z-score value was observed for AGAATGATGTTAAGATCAGGGAAACAGAATACAT ?
-0.153

Would you mind telling me what PBM binding z-score value was observed for TCAAGCAGGCCAGAGGGTCACTCAAGAGGTACGG ?
1.68

Would you mind telling me what PBM binding z-score value was observed for TCATATAGGTAAACGCTAGGTGAAAGTCCGATCT ?
1.52

Would you mind telling me what PBM binding z-score value was observed for ATCGAAGGGTCGAGGTGAGTATAGAGAAAGGGAA ?
2.17

Would you mind telling me what PBM binding z-score value was observed for CGAACTAGGTCATCCAGAACAGTGAATACATTGA ?
2.64

Would you mind telling me what PBM binding z-score value was observed for AGAACGAGGGCAATAAGTTGATAGCACGGGTGGC ?
0.873

---

# Test system: PXR:RXRa (NR concentration 270 nM, RXRa partner concentration 90 nM)
# testDetails: PBM binding z-score (relative to random genomic background probes); higher = stronger binding; sequences stand for … in GC…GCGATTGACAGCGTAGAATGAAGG
Lab note: compare PBM binding z-score against 0.4. Equal or greater, write T. Smaller, write F.

API: above_or_equal(metric=PBM binding z-score, cutoff=0.4) for item GCTTACGGGTCACAGGTTATAGCATGAATAGAAT
T

API: above_or_equal(metric=PBM binding z-score, cutoff=0.4) for item AGTACAGGGTCACTAGGCCAGAGTAGGTACGAAT
T

API: above_or_equal(metric=PBM binding z-score, cutoff=0.4) for item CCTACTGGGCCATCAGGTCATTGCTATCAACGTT
T

API: above_or_equal(metric=PBM binding z-score, cutoff=0.4) for item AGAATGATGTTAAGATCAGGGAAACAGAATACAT
F

API: above_or_equal(metric=PBM binding z-score, cutoff=0.4) for item CCGACTGGGGCATAAGGTTCCCATAAGCCAGCCC
F

API: above_or_equal(metric=PBM binding z-score, cutoff=0.4) for item GCTAGCAGGCCATTTGGGTCACTAAATGACGGGC
F

---

# System: LXRa homodimer (NR concentration 270 nM)
# testDetails: PBM binding z-score (relative to random genomic background probes); higher = stronger binding; sequences stand for … in GC…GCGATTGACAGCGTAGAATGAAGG
Lab note: compare PBM binding z-score against 0.3. Equal or greater, write Yes. Smaller, write No.

API: above_or_equal(metric=PBM binding z-score, cutoff=0.3) for item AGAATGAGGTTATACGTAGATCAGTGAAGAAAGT
No

API: above_or_equal(metric=PBM binding z-score, cutoff=0.3) for item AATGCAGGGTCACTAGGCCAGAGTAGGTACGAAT
No

API: above_or_equal(metric=PBM binding z-score, cutoff=0.3) for item AGAAAGAGGTTATACGTAGATCAGGGAAGAAAGT
No

API: above_or_equal(metric=PBM binding z-score, cutoff=0.3) for item CCGTACGGGTCACGAGGTTATAGCACGACGAGCG
Yes

API: above_or_equal(metric=PBM binding z-score, cutoff=0.3) for item CCTTACCGGTCACTCCAGGTTATAGCATCGGAGT
Yes

API: above_or_equal(metric=PBM binding z-score, cutoff=0.3) for item TCTTGTAGATCAACAGGAGATTAAGAAAGATCGA
No

API: above_or_equal(metric=PBM binding z-score, cutoff=0.3) for item ATCTCTAGGTAAGAATCAGTTCAGTGAAGAACGC
Yes

API: above_or_equal(metric=PBM binding z-score, cutoff=0.3) for item TCATATAGGTAAAAGGTGAAATTCGGTGTGGTAA
Yes

API: above_or_equal(metric=PBM binding z-score, cutoff=0.3) for item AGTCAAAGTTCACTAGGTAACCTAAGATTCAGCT
Yes

API: above_or_equal(metric=PBM binding z-score, cutoff=0.3) for item TCTTGTAGATCAAAAGGAGGTTAAGAAAGATCGA
No

API: above_or_equal(metric=PBM binding z-score, cutoff=0.3) for item AGAACGAGGGCATTGAGTTGATAGCACGGGTGGC
No

API: above_or_equal(metric=PBM binding z-score, cutoff=0.3) for item ACTATTAGTTGAGTTAGGGCAACCGATACGACGC
Yes

---

# Tested on: LXRb homodimer (NR concentration 270 nM)
# testDetails: PBM binding z-score (relative to random genomic background probes); higher = stronger binding; sequences stand for … in GC…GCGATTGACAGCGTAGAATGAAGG
Task for the reader: assign each of the following sequences its reported PBM binding z-score.
Answer with a bare number; do not write a unit.

Would you mind telling me what PBM binding z-score value was observed for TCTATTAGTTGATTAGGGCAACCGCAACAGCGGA ?
0.245

Would you mind telling me what PBM binding z-score value was observed for TGATATAGGTAAACAGGTGAAAGTCCGTAAGTTA ?
0.0217

Would you mind telling me what PBM binding z-score value was observed for TCTCGGAGGACACGGAAGGTCAGAGCTCGACATC ?
-0.694

Would you mind telling me what PBM binding z-score value was observed for GGAACGATGGCATTCGAGTTGATAGCATGGCGAT ?
-1.12

Would you mind telling me what PBM binding z-score value was observed for CGAACTAGGTCATTGGCAGGACAGTGAATAGTAA ?
-0.306

Would you mind telling me what PBM binding z-score value was observed for ACTAGCAGGCCAAGTTTGGGTCGCTCAAACAAAG ?
-0.759
